Catalogue of variants with associated abundance fitness
B1: Poly(rC)-binding protein 1, residues 278 to 350; numbered along this chain, Q15365 (parent)
chain: TQTTHELTIPNNLIGCIIGRQGANINEIRQMSGAQIKIANPVEGSSGRQVTITGSAASISLAQYLINARLSSE

- Variants of: B1
- experiment: abundance fitness (aPCA) (normalised: wild type 0, dead -1); higher = more abundant; growth selection in yeast, the domain comes from the species named
- measurement_conditions: Homo sapiens
quantity_measured: abundance fitness

1. Y64T | 0.287
2. V42H | -0.186
3. I52M | -0.225
4. I52L | -0.039
5. I66M | -0.094
6. S32A | -0.498
7. N12L | -0.35
8. L13A | -0.069
9. L7V | -0.043
10. K37L | -0.142
11. I38R | -0.737
12. N67M | -0.135
13. S55L | -0.786
14. T4M | -0.189
15. E6M | 0.07
16. R69I | -0.258
17. T51I | -0.107
18. N12A | -0.148
19. T1N | 0.194
20. I28S | -1.04
21. T4I | -0.292
22. I28D | -0.524
